test system: Thyroid hormone TR (TH); experiment: Binding TR (TH) (ag); parameters: species or system rat
Assign % Inhibition of Control Specific Binding @ 10 μM to each entry below.
Return type: number; implicit unit %.

Value of % Inhibition of Control Specific Binding @ 10 μM reported for the compound "CC1(C)C(=O)N(c2ccc(C#N)c(C(F)(F)F)c2)C(=S)N1c1ccc(C(N)=O)c(F)c1" is 0

Reported % Inhibition of Control Specific Binding @ 10 μM ( "CC1(C)C(=O)N(c2ccc(C#N)c(C(F)(F)F)c2)C(=S)N1c1ccc(C(=O)O)c(F)c1" ) = −7

Noted for "CC1(C)C(=O)N(c2ccc(C#N)c(C(F)(F)F)c2)C(=O)N1c1ccc(C(N)=O)c(F)c1" : its % Inhibition of Control Specific Binding @ 10 μM reads −9

Data point: "CNC(=O)c1ccc(N2C(=O)N(c3ccc(C#N)c(C(F)(F)F)c3)C(=O)C2(C)C)cc1F" ; % Inhibition of Control Specific Binding @ 10 μM = −2
